Biological target: T1, APRIL (Acro Biosystems, Cat: APL-H52D1) (UniProt O75888 115-250, limits assumed)
T1 construct: also called ARPIL; A proliferation-inducing ligand
T1 sequence (looked up): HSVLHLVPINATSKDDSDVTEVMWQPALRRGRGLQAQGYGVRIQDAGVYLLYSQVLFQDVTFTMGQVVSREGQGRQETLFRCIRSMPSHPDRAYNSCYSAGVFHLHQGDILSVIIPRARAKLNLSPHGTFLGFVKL
Assay: ELISA, APRIL coated, anti-human Fc-HRP, OD450
reported metric: Emax
Please answer using a numeric value trailed by its unit.

input: Query: Emax; subject: B575703 (Fc fusion, TACI-BCMA fusion protein; also called TACI-T2-BCMA-ECD-Fc) SRVDQEERFPQGLWTGVAMRSCPEEQYWDPLLGTCMSCKTICNHQSQRTCAAFCRSLSCRKEQGKFYDHLLRDCISCASICGQHPKQCAYFCENKLRSPVNLPPELMLQMAGQCSQNEYFDSLLHACIPCQLRCSSNTPPLTCQRYCNASVTNSVKGTNADKTHTCPPCPAPEAEGAPSVFLFPPKPKDTLMISRTPEVTCVVVDVSHEDPEVKFNWYVDGVEVHNAKTKPREEQYNSTYRVVSVLTVLHQDWLNGKEYKCKVSNKALPSSIEKTISKAKGQPREPQVYTLPPSRDELTKNQVSLTCLVKGFYPSDIAVEWESNGQPENNYKTTPPVLDSDGSFFLYSKLTVDKSRWQQGNVFSCSVMHEALHNHYTQKSLSLSPGK
output: 2.78 nM
